Values compiled from patent US20100197608A1.

Assay: in vitro
Settings: human, MRC-5 cells
Where a SMILES comes first, the peptide text is derived from it.
measured.parameter: viability at 144 h

[[record]]
compound = "NCCCC[C@H](NC(=O)[C@@H](N)CCCCN)C(=O)NCC(=O)N[C@@H](CCC(=O)O)C(=O)O [MPF, Lys-Lys-Gly-Glu-OH] (H-KKGE-OH)"
assay_value = "96.1%"

